- System: HL-60(TB) leukemia
- assay.explanation: NCI-60 one-dose screen, 48 h
- condition.label: 10 µM unless noted
About 83,000 compounds went through this panel and 20% of them were active in at least one assay; those are over-represented in the sample as a whole. The source made the active and inactive calls. Rule for the calls: active = growth percent below 10; inactive = the rest.
Labels: yes = active, no = inactive

[[record]]
chemical_string = "COc1ccc(-c2nn(-c3cccc(Cl)c3)cc2-c2c(C#N)c(=O)n3[nH]c(-c4ccc(C)cc4)nc3c2C#N)cc1"
assigned_class = "no"

[[record]]
chemical_string = "COc1ccc(C(=O)/C=C/c2cccc([N+](=O)[O-])c2)c(OC)c1"
assigned_class = "yes"

[[record]]
chemical_string = "Cc1nc(Sc2nc3ccc([N+](=O)[O-])cc3s2)sc1C"
assigned_class = "yes"

